Cited source for all entries: PubChem BioAssay (NCI)

protocol: NCI Yeast Anticancer Drug Screen. Data for the CLN2oe strain (AID 163);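 also: 0% = growth of vehicle-only control cultures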
run-conditions: S. cerevisiae CLN2oe strain, at 100.0 µM
The panel holds about 79,000 compounds, 15% with a hit somewhere; the sample as a whole holds those more often. Calls of active or inactive are those of the source. Rule as the data show it: active = growth inhibition above about 70%; inactive = the rest.
Your answer must be one of the following: active, inactive

Worked cases, answers included:
compound	class
CC(C)(C)[Si](C)(C)OCC1OC(n2cnc3c(N)ncnc32)C2OC(=S)OC12 (stereo unspecified)	inactive
O=C(Cc1ccccc1F)NC1=C(Cl)C(=O)c2ccccc2C1=O	inactive
CC(C)OC(CCC#N)c1ccc(Cl)cc1 (stereo unspecified)	inactive
BrC/C=C/C[P+](c1ccccc1)(c1ccccc1)c1ccccc1	active

Outcome? NNc1nnc(-c2ccccc2)nc1Cc1ccccc1 active

Can you check Cc1nc2ccc(Br)cc2c(=O)n1-c1ccc(NC2OCC(O)C(O)C2O)cc1 (stereo unspecified) next? inactive

###

Measured growth inhibition accompanies every entry in the list below.
protocol: NCI Yeast Anticancer Drug Screen. Data for the mec2-1 strain (AID 157)
run-conditions: S. cerevisiae mec2-1 strain, at 1.2 µM, stronger effect = higher value
This is part of a sample that, as a whole, favours compounds with a hit. Of some 79,000 tested, about 15% had one in any assay.
Provide only the numeric value, understood in %.

compound	readout-units	growth inhibition
O=S(=O)(Oc1c(Cl)cc(Cl)cc1Cl)c1ccccc1	%	-4
O=c1c(Br)cc2c(-c3ccccc3)c3cc(Br)c(O)c(Br)c3oc-2c1Br	%	1

What value of growth inhibition has been reported for the following compound? COc1ccc(/C=C2\CCc3ccccc3C2=O)cc1OC -36

Can you check CCCCCCCCCCCCCCCCCN next? -37

Can you check CCC(C)C(=O)OCC(=O)c1ccc(-c2ccccc2)cc1 (centres undefined) next? -3

Can you check Cc1ccccc1C1=C(CC(=O)O)c2ccccc2CC1C (centres undefined) next? 9

Can you check C=Cc1c(C)c(O)cc2c1-c1ccc(O)c(C)c1CC2 next? -19

Can you check Cc1cnccc1N=Nc1ccc(N(C)C)cc1 next? -3

Can you check Cc1cccc(N2CCN(C(=O)/C(=C/c3ccccc3)NC(=O)c3ccccc3)CC2)c1 next? -1

Can you check CN(C)N1C(=O)SCC(c2ccccc2)(c2ccccc2)C1=O next? 1

Can you check CN(C)c1ccc(/C=C/c2ccnc3ccc4ccccc4c23)cc1 next? -7

Can you check CN(Cc1cccc2ccccc12)Cc1cccc2ccccc12 next? -2

Can you check O=S(=O)(O)c1ccc2c(N=Nc3c(O)ccc4ccccc34)cccc2c1 next? 1

Can you check CNC(=O)OCc1c(COC(=O)NC)c(C)n(-c2ccc(Cl)c(Cl)c2)c1C next? -27

Can you check CSc1ccc2c(c1)C(N1CCN(C)CC1)Cc1ccccc1S2 (centres undefined) next? -75

Can you check O=C(CCCN1CCC2(CC1)OC(=O)N(c1ccccc1)C2=O)c1ccccc1 next? 44

Can you check CN(C)/N=N/c1nc[nH]c1C(N)=O next? 0

Can you check c1cc(Nc2ccc3c(c2)OCO3)c2cc(C3CCCCC3)ccc2n1 next? -3

Can you check CCCCCCCCCCCCOC1C(COCCN2CCCC2)OC2OC(C)(C)OC21 (centres undefined) next? 18

Can you check Cc1cc(N(CCOS(C)(=O)=O)CCOS(C)(=O)=O)ccc1C=O next? 6

Can you check CCCCOc1ccc(Nc2c3ccccc3nc3ccccc23)cc1 next? -24

Can you check CC[N+]1(C)CCC(O)(/C=C/c2ccc(Cl)c(Cl)c2)C(C(=O)/C=C/c2ccc(Cl)c(Cl)c2)C1 (centres undefined) next? 36

Can you check COc1ccc(C(=O)OCCc2ccccc2)cc1 next? -1

Can you check COC(=O)C1(N2CCOCC2)CCC([C@@H](c2ccccc2)C(C)[N+](=O)[O-])C1 (some centres undefined) next? -3

###

Measured growth inhibition accompanies every entry in the list below.
protocol: NCI Yeast Anticancer Drug Screen. Data for the mlh1 strain (AID 171);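 also: 0% = growth of vehicle-treated control cultures of the same strain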
run-conditions: S. cerevisiae mlh1 strain growth inhibition; at 11.0 µM; stronger effect = higher value
Compounds without any hit were thinned out: in the full panel of roughly 79,000, 15% have a hit. Activity calls are given as the source filed them. Rule as the data show it: active = growth inhibition above about 70%; inactive = the rest.

compound	result
c1ccc2cc(OCC3CO3)c(OCC3CO3)cc2c1 (stereo unspecified)	-33% (inactive)
COc1ccc2cc(CN3CCC(C4CCN(Cc5ccc6cc(OC)ccc6c5)CC4)CC3)ccc2c1	-17% (inactive)
O=C(O)/C=C\C(=O)NNc1ccc(Br)cc1	98% (active)
O=S(=O)(O)c1ccc2c(N=Nc3c(O)ccc4ccccc34)cccc2c1	17% (inactive)
C#CC1=CC(=O)C(OC)=CC1=O	96% (active)
COc1ccc(C(=O)NCCN(C)C)c2nc3ccccc3cc12	18% (inactive)

What value of growth inhibition has been reported for the following compound? COc1cc(C(C)(C)C)cc(OC)c1C(O)(c1c(OC)cc(C(C)(C)C)cc1OC)c1c(OC)cc(C(C)(C)C)cc1OC 89% (active)

Can you check Cc1cc(N(CCOS(C)(=O)=O)CCOS(C)(=O)=O)ccc1C=O next? 24% (inactive)

Can you check CC(C)(C)[Si](C)(C)OCC1OC(n2cnc3c(N)ncnc32)C2OC(=S)OC12 (stereo unspecified) next? -3% (inactive)

Can you check O=[N+]([O-])c1cccc2nc3ccccc3c(NCCC[N+]3([O-])CCOCC3)c12 next? 21% (inactive)

Can you check O=C(Cc1ccccc1)c1ccc(O)cc1 next? 23% (inactive)

###

protocol: NCI Yeast Anticancer Drug Screen. Data for the mgt1 strain (AID 153)
run-conditions: S. cerevisiae mgt1 mutant growth inhibition; at 3.7 µM; stronger effect = higher value
About 79,000 compounds went through this panel and 15% of them were active in at least one assay; those are over-represented in the sample as a whole.
Measured growth inhibition accompanies every entry in the list below.
Provide only the numeric value, understood in %.

compound	readout-units	growth inhibition
Cc1nc2ccccc2c(=O)n1NC(=O)c1ccc(CS)cc1	%	-12
O=C1c2ccccc2-c2ccc(NC(=O)C3CCCCC3C(=O)O)cc21 (configuration not stated)	%	-2
O=C(CSS(=O)(=O)O)c1ccccc1	%	-3
CC(C)c1ccc(C2NC(=S)NC3=C2c2ccccc2C3=O)cc1 (configuration not stated)	%	-4

What value of growth inhibition has been reported for the following compound? OC1C#CCSCC#C/C=C\1 (configuration not stated) 2

Can you check O=c1c(Br)cc2c(-c3ccccc3)c3cc(Br)c(O)c(Br)c3oc-2c1Br next? -2

Can you check CC(C)(C)[Si](C)(C)OCC1OC(n2cnc3c(N)ncnc32)C2OC(=S)OC12 (configuration not stated) next? 0

###

protocol: NCI Yeast Anticancer Drug Screen. Data for the mgt1 strain (AID 153)
run-conditions: S. cerevisiae mgt1 mutant growth inhibition; at 11.0 µM; stronger effect = higher value
About 79,000 compounds went through this panel and 15% of them were active in at least one assay; those are over-represented in the sample as a whole. Active and inactive are the calls of the source. Rule as the data show it: active = growth inhibition above about 70%; inactive = the rest.
Measured growth inhibition accompanies every entry in the list below.

Study these solved cases before continuing.
molecule	growth inhibition
O=C(O)NCC1CCCCC1 (tested in a mixture with another compound)	-4% (inactive)
COc1ccc2cc(CN3CCC(C4CCN(Cc5ccc6cc(OC)ccc6c5)CC4)CC3)ccc2c1	0% (inactive)
Cn1c(COc2ccc(/C=N/NC(=O)CCC(=O)N/N=C/c3ccc(OCc4c[n+]5ccccc5n4C)cc3)cc2)c[n+]2ccccc12	4% (inactive)
CC(C)(C(=O)NN)c1ccccc1	22% (inactive)

What value of growth inhibition has been reported for the following molecule? O=[N+]([O-])c1cccc2nc3ccccc3c(NCCC[N+]3([O-])CCOCC3)c12 17% (inactive)

Can you check CCCCCCC(CCl)c1sc(-c2csc(CCNC(=O)OC(C)(C)C)n2)nc1C(=O)OC (centres undefined) next? -6% (inactive)

Can you check CCCCCC(=O)C(C)(c1nc2n(c1O)/C(=N/C(=O)Nc1ccc(Cl)cc1)N=N2)c1nc2n(c1O)/C(=N/C(=O)Nc1ccc(Cl)cc1)N=N2 next? -5% (inactive)

Can you check O=[N+]([O-])C(=C(NCc1ccccc1)NCc1ccccc1)C(Cl)=C(Cl)Cl next? 5% (inactive)

Can you check CCC(C)C(=O)OCC(=O)c1ccc(-c2ccccc2)cc1 (centres undefined) next? 1% (inactive)

Can you check O=c1[nH]c(=O)n(CCCO)cc1F next? -24% (inactive)

Can you check [Cl][Pt+2][Cl].[NH-]CC1(C[NH-])CCCCC1 next? 98% (active)

Can you check CCOC(=O)c1[nH]c2cccc3c2c1CC(Br)C3=O (centres undefined) next? -4% (inactive)

Can you check O=C(CSS(=O)(=O)O)c1ccccc1 next? -1% (inactive)

Can you check O=S(=O)(O)CC[S][Sn]([S]CCS(=O)(=O)O)([c]1ccccc1)[c]1ccccc1 next? 92% (active)

Can you check Nc1nc(Nc2ccccc2)nc(Nc2ccccc2)n1 next? -3% (inactive)

Can you check O=C(O)CN(CCNC(=O)OCC1c2ccccc2-c2ccccc21)CCNC(=O)OCC1c2ccccc2-c2ccccc21 next? 9% (inactive)

Can you check O=C1c2ccccc2C2CCC1c1ccccc12 (centres undefined) next? 5% (inactive)

Can you check O=c1c(Br)cc2c(-c3ccccc3)c3cc(Br)c(O)c(Br)c3oc-2c1Br next? 9% (inactive)

Can you check Cc1cccc[c]1[Sn]([Cl])([S]/C(C#N)=N/N=C/c1ccc(N(C)C)cc1)[c]1ccccc1C next? -8% (inactive)

Can you check CN(C)CCn1c2ccccc2c2nc3cc4ccccc4cc3nc21 next? 14% (inactive)

Can you check O=C1c2ccccc2-c2ccc(NC(=O)C3CCCCC3C(=O)O)cc21 (centres undefined) next? -3% (inactive)

Can you check O=C(c1c(F)c(F)c(F)c(F)c1F)c1c(F)c(F)c(F)c(F)c1F next? 98% (active)

Can you check N#C/C(=C1C=C/C(=N\O)C(Cl)=C\1)c1ccccc1 next? 3% (inactive)

Can you check COc1cc(NCCCCCNC(C)C)c2ncccc2c1Cl next? 1% (inactive)
